tested on: IGROV1 ovarian; assay: NCI tumour cell line growth inhibition, 48 h
result-type: TGI

{"columns": ["molecule", "value-observed"],
 "data": [
  ["COc1ccc(-c2cc(-c3ccc(C)cc3)n(C3OC(COC(C)=O)C(OC(C)=O)C(OC(C)=O)C3OC(C)=O)c(=S)c2C#N)cc1 (configuration not stated)", "> 100 µM"],
  ["CNc1c2ccccc2nc2occ(Cl)c12", "> 100 µM"],
  ["CC(C)(C)OC(=O)NC(CSCc1ccc(C(=O)c2ccccc2)cc1)C(=O)N1CCN(CCCCN2c3ccccc3Sc3cc(N=[N+]=[N-])ccc32)CC1 (configuration not stated)", "> 100 µM"]
]}

Requested field: TGI. Item: `Cc1cc(NS(=O)(=O)c2ccc(NC(=O)c3ccc(Cl)c4c(Nc5ccc(S(=O)(=O)Nc6cc(C)on6)cc5)c5ccccc5nc34)cc2)no1`
49.7 µM

Try this molecule next: `COC(=O)CNC(=O)C(=O)c1c(O)c(O)c(C(C)C)c2cc(C)c(-c3c(C)cc4c(C(C)C)c(O)c(O)c(C(=O)C(=O)NCC(=O)OC)c4c3O)c(O)c12`
8.94 µM

Next up: `COc1c(C(=O)/C(=N/Nc2ccc(C(=O)O)cc2)C(C)=O)c(O)cc2occc12`
> 100 µM

What about CC(=O)C1=C(C)N(c2ccccc2)C2(O)C3=C(C(=O)c4ccccc4C3=O)C(O)=CC12Cl (configuration not stated) ?
8.25 µM

Can you check `Nc1c(C(=O)c2cccc(-c3cccnc3)c2)cnn1-c1ccc(F)cc1` next?
> 25 µM

Repeat with `Cc1nc2ccccc2c(=O)n1/N=C(\N=Nc1ccc(Cl)cc1)c1cccc(-c2ccco2)c1`
> 100 µM

Likewise for `NCCCn1c(Cl)nc2ccccc21` ?
> 100 µM

Would you kindly repeat that for `COc1ccc(-c2nc(NC(=O)CS(=O)(=O)c3ccc(F)cc3)sc2C)cc1` ?
> 100 µM

Also, `CN[C@@H](C)C(=O)N[C@H](C(=O)N1CCC[C@H]1c1nc(C(=O)c2ccc(F)cc2)cs1)C1CCCCC1` please.
> 100 µM

* * *

test system: RXF-631 renal; test: NCI tumour cell line growth inhibition, 48 h
The following compounds are shown together with reported TGI values.

{"columns": ["compound", "value-observed"],
 "data": [
  ["N#CN1CC[C@@H]2CC3(CCC2C1)OCCO3 (stereo partly drawn)", "> 100 µM"],
  ["Nc1nnc(N)n1N", "> 100 µM"]
]}

Now look at this one.
Need TGI, item `Cc1c(C)c2cc3c(=O)c(CCl)coc3c(C)c2oc1=O`
> 100 µM

* * *

test system: HCT-116 colon; experiment: NCI tumour cell line growth inhibition, 48 h
// reported TGI per item

Below are worked cases with known answers.
{"columns": ["compound", "TGI"],
 "data": [
  ["O=C(O)CCC(O)=C1S(=O)(=O)OCCOS1(=O)=O", "> 100 µM"],
  ["O=C(n1c2ccccc2c2n[nH]c(=S)nc21)C(F)(F)F", "> 100 µM"],
  ["COP(=O)(OC)C(N)Cc1c[nH]c2ccccc12 (stereo not given)", "> 100 µM"],
  ["CCO/N=C\\c1ccc2oc(-c3ccccc3)cc(=O)c2c1", "8.23 µM"],
  ["O=C(c1ccccc1)c1nc2c(Cl)ccc(Cl)c2cc1C(Br)Br", "1.56 µM"]
]}

Request the reported TGI associated with `COc1ccc2c(=O)c(-c3cc(OC)c(OC)cc3OC)coc2c1`
> 100 µM
